# credit: the supplement of paper PMC6757056

B1: library; a variant is named by its letters at N, in order (parent)
chain: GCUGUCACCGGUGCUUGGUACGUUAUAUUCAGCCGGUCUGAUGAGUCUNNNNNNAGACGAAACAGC

- Variants of: B1
- protocolSummary: normalized RNA/DNA level with ligand (relative to sTRSVctl = 100) (log10 (% of sTRSVctl)); HEK293T overexpressing SLC46A1; ligand concentration (+) RNA-Seq: 6 mM; higher = less ribozyme self-cleavage, higher mRNA level
- experimentalParameters: with (6R,S)-folinic acid; ligand present: yes
measuredProperty: normalized RNA/DNA level with ligand (log10)

# mutantDesignation, recordedNumber
data = [
    ("UGGUGA", 2.01),
    ("UGUACC", 2.03),
    ("GGUAAG", 2),
    ("GAGGGC", 2.04),
    ("GCGCGG", 2.03),
    ("GUCAUG", 2.03),
    ("UUGGGU", 1.98),
    ("UGUCGU", 2),
    ("GGGAGG", 2.04),
    ("GAUCGG", 2.07),
    ("CGACGC", 2.01),
    ("CACUCG", 2),
    ("UCGCUC", 2.04),
    ("GAUGAC", 2.01),
    ("AUGCGG", 2.02),
    ("CCGGGC", 2.07),
    ("CUUAUC", 2.08),
    ("GCUUAC", 2.01),
    ("CUCAGU", 2.02),
    ("AGACUG", 2.01),
    ("AAUUUU", 2.01),
    ("UACGGG", 1.97),
]
